Assign growth to each entry below.
System: SF-295 CNS
Experiment: NCI-60 one-dose screen, 48 h (100 = growth as untreated, 0 = no growth, -100 = all killed)
Settings: 10 µM unless noted
This is part of a sample that, as a whole, favours compounds with a hit. Of some 83,000 tested, about 20% had one in any assay.
Give bare numbers, in %.

Below: 3 compounds and their reported growth.
Recorded growth of "COc1ccc(C(=O)/C=C/c2ccc(Cl)cc2)cc1S(N)(=O)=O" , please.
98.3

Recorded growth of "Cc1ccc(OCCOCCOCCOCCOc2ccc(C)n(O)c2=S)c(=S)n1O" , please.
18.2

Recorded growth of "CCOC(=O)CSc1nc2sc3c(c2c(=O)n1-c1ccccc1)CCCCC3" , please.
96.3

Give growth for each listed item.
1. O=C(O)COc1ccc(F)cc1
2. COCCNC(=O)Cc1cc(-c2ccc(Cl)cc2)n(-c2ccccc2)c1C
3. CCOC(=O)C1=C(c2ccccc2)N=C2N(c3ccccc3)N=C(C(C)=O)N2C1c1ccc(Br)cc1 (stereo not given)
4. C=C1/C(=C\C=C2/CCC[C@]3(C)[C@@H]([C@H](C)CCCC(C)(C)O)CC[C@@H]23)C[C@@H](OC(=O)CBr)C[C@@H]1O

1: 102; 2: 85.6; 3: 90.3; 4: 94.6

Give growth for each listed item.
1. COc1ccc(/C=C2/CCc3cc4ccc(OC)cc4[o+]c32)c(O)c1
2. O=C1c2cccnc2C(=O)c2c1c(C(=O)OCCCN1CCOCC1)c1ccccn21
3. c1ccc2[nH]c(-c3ccc(-c4nccc5c4[nH]c4ccccc45)cc3)nc2c1

[106, -4.43, 75.1]

Give growth for each listed item.
1. COc1cc(/C=C2\C(=O)N(CCOc3cc(O)c4c(=O)cc(-c5ccccc5)oc4c3)c3ccccc32)cc(OC)c1O
2. O=C(OCC(O)(CO)C(=O)NC12CC3CC(CC(C3)C1)C2)c1ccc(Cl)cc1 (stereo not given)
3. CO[C@H]1CC(c2ccc[nH]2)=N[C@]12O[C@@H](C)C[C@@H]1CCCCCCCc3ccc([nH]3)[C@H]12
4. O=C1NC(=O)C(=Cc2cc(-c3ccc(Cl)cc3)n(-c3ccccc3)n2)C(=O)N1
5. Cc1cc(=O)oc2cc(Oc3nc(-c4ccccc4)cn4c(-c5ccccc5)cnc34)ccc12

1: 86.6; 2: 93.1; 3: 17.4; 4: 93.8; 5: 54.2

* * *

Test system: SR leukemia
Test: NCI-60 one-dose screen, 48 h
Details: 10 µM unless noted
Compounds without any hit were thinned out: in the full panel of roughly 83,000, 20% have a hit. Activity calls are given as the source filed them. How the source made its calls: active means growth percent below 10; inactive means the rest.
Your answer must be one of the following: active, inactive

The examples below pair each entry with its known result.
For "COC(=O)CCc1c(/C=C2\N=C(c3ccc[nH]3)C=C2OC)[nH]c(C)c1C(=O)OCc1ccccc1" , which call appears in the assay record?
active

For CN1C(=O)N(C)C2C1NN=c1s/c(=C\c3ccccc3F)c(=O)n12 (centres undefined) , which call appears in the assay record?
inactive

More entries:
For "Fc1ccc(/C=C/c2cc(/C=C/c3ccc(F)cc3)n(-c3cc(F)cc(F)c3)n2)cc1" , which call appears in the assay record?
inactive

For "COc1cc(/C=C/c2cc(/C=C/c3ccc(O)c(OC)c3)n(C(=O)Nc3ccc(C)cc3C)n2)ccc1O" , which call appears in the assay record?
active
